tested on: U2OS; test: Multiplex assay against U2OS; assay type: toxicity, cell-based; conditions: human, 12 h, 10 µM, compound concentration 10 uM, replicate 1
measured_attribute: Population Healthy Nuclei (%)
Respond with the bare value in %.

Could you share what Population Healthy Nuclei (%) was measured for Cc1ccc(NC(=O)Nc2cc(C(F)(F)F)ccc2F)cc1Nc1ccc2c(c1)NC(=O)/C2=C\c1ccc[nH]1 , tested on U2OS? 91

Can you check Cl.NC[C@@H]1O[C@H](C23CC4CC(CC(C4)C2)C3)Cc2c1ccc(O)c2O next? 36

Can you check CC(C)C[C@H](NC(=O)[C@H](Cc1ccccc1)NC(=O)CNC(=O)CNC(=O)[C@@H](N)Cc1ccc(O)cc1)C(=O)O [ENKEPHALIN] next? 78

Can you check CCCCCNC(=N)N/N=C/c1c[nH]c2ccc(OC)cc12.O=C(O)/C=C\C(=O)O [TEGASEROD MALEATE] next? 0

Can you check CC(C)[C@H](CO)Nc1nc(Nc2cccc(Cl)c2)c2ncn(C(C)C)c2n1 [PURVALANOLA] next? 55

Can you check CCOc1ccn(-c2ccc(F)cc2)c(=O)c1C(=O)Nc1ccc(Oc2ccnc(N)c2Cl)c(F)c1 [BMS-777607] next? 91

Can you check CC[C@@]1(O)C(=O)OCc2c1cc1n(c2=O)Cc2cc3ccccc3nc2-1 [CAMPTOTHECIN] next? 74

Can you check CN(c1cc(C(F)(F)F)nc(OCCC(=O)O)n1)c1cccc2c1CCC2 next? 77

Can you check Cc1c(P(=S)(c2ccccc2)c2ccccc2)n2ccccc2[n+]1C/C=C/c1ccccc1.[Br-] next? 9

Can you check Cl.Cn1c2c(c3ccc(Cl)c(Cl)c31)C(C#N)C1(CCNCC1)NC2=O (stereo not drawn) next? 20

Can you check Cc1c(Nc2ccc(S(=O)(=O)N3CCN(C)CC3)cc2F)nc2ccc(Nc3cnn(C4CC4)c3)cn2c1=O next? 91

Can you check C=CC(=O)Nc1cc(-n2c(=O)ccc3cnc4ccc(-c5ccc(NS(C)(=O)=O)cc5)cc4c32)ccc1C next? 66

Can you check CCOC(=O)CCNc1cc(N2CCc3ccccc3CC2)nc(-c2ccccn2)n1 next? 82

Can you check CCCCN(CC)c1nc(C)nc2c1c(C)cn2-c1c(C)cc(C)cc1C.Cl next? 67

Can you check CC(/C=C1\SC(=S)N(CCCC(=O)Nc2ccc(C(=O)O)c(O)c2)C1=O)=C\c1ccccc1 next? 86

Can you check N#CCNC(=O)c1ccc(-c2ccnc(Nc3ccc(N4CCOCC4)cc3)n2)cc1 [MOMELOTINIB] next? 57

Can you check COc1cc(C)c(Sc2cnc(NC(=O)c3ccc(CNC(C)C(C)(C)C)cc3)s2)cc1C(=O)N1CCN(C(C)=O)CC1 (stereo not drawn) next? 84

Can you check Oc1cccc(-c2nc(N3CCOCC3)c3oc4ncccc4c3n2)c1 [PI-103] next? 47

The reported numbers originate from ChEMBL document CHEMBL4689842.
